Give measured TGI for each item. Keep answers brief.
System: SNB-19 CNS
MEASUREMENT NOTES: NCI tumour cell line growth inhibition, 48 h
One number for each entry, in µM.

STRUCTURE NOTATION: O=C(CCc1ccc(O)c(O)c1)NCCc1cc(OCc2ccccc2)cc(OCc2ccccc2)c1
RECORDED METRIC: TGI
UNITS SYMBOL: µM
ASSAY VALUE: 18

STRUCTURE NOTATION: [N-]=[N+]=Nc1c([N+](=O)[O-])c(Cl)nc2ccccc12
RECORDED METRIC: TGI
UNITS SYMBOL: µM
ASSAY VALUE: 27.8

# evaluate next
Enquiry: Name the recorded TGI of the item CC[C@@H](C(=O)[C@@H](C)[C@@H](O)[C@H](C)CCc1ccc(C)c(O)c1C(=O)O)[C@H]1O[C@](CC)([C@H]2CC[C@](O)(CC)[C@H](C)O2)C[C@@H]1C in your answer.
Return: 5.95
